# test system: BRD4-BD2 (Homo sapiens (Human))
# protocol summary: competitive TR-FRET assay, BET-BD with acetylated peptide ligand
# Type: binding
# conditions used: Table 4, ratio of EC50
Form field: 4(1)/4(2) (one value per entry).
// response body must contain only the number

Previously resolved entries follow.
[[record]]
smiles_representation = "CC(=O)Nc1cccc(-c2ccc3c(c2)[C@H](Nc2ccc(Cl)cc2)C[C@H](C)N3C(C)=O)c1"
result = 15

[[record]]
smiles_representation = "CC(=O)Nc1cccc(-c2ccc3c(c2)[C@H](Nc2ccc(F)cc2)C[C@H](C)N3C(C)=O)c1"
result = 63

[[record]]
smiles_representation = "CC(=O)Nc1cccc(-c2ccc3c(c2)[C@H](Nc2ccccc2OC(F)(F)F)C[C@H](C)N3C(C)=O)c1"
result = 59

[[record]]
smiles_representation = "COc1ccccc1N[C@@H]1C[C@H](C)N(C(C)=O)c2ccc(-c3cccc(NC(C)=O)c3)cc21"
result = 52.9


Could you now look at the following compound, please?
(Q) Name the recorded 4(1)/4(2) for COC(=O)c1ccc(N[C@@H]2C[C@H](C)N(C(C)=O)c3ccc(-c4cccc(NC(C)=O)c4)cc32)cc1 .
(A) 20.5
